All figures here come from patent US8202865B2.

subject.of.test: S1P1 (Homo sapiens)
experiment.description: 35S-GTPγS binding, S1P1 membranes
test.parameters: membranes from CHO cells expressing S1P1; 60 min 30° C.
measurement.type: EC50 (nM)

Known results for compounds:
COCCOc1cc(-c2nc(-c3ccc(C(=O)O)c(F)c3)no2)ccc1-c1ccccc1C :: 257
CC(C)Oc1ncc(-c2nc(-c3ccc(OCC(=O)O)c(F)c3)no2)cc1Cl :: 294
COCc1cc(-c2nc(-c3ccc(Cl)c(C(=O)O)c3)no2)ccc1-c1ccccc1C :: 163
COCc1cc(-c2nc(-c3ccc(C(=O)O)c(F)c3)no2)ccc1-c1ccccc1C :: 30
CCC(=O)Nc1cc(-c2nc(-c3ccc(C(=O)O)c(F)c3)no2)ccc1N1CCCCC1C (stereo not shown) :: 8510
COCc1cc(-c2nc(-c3ccc(C(=O)N(C)CC(=O)O)c(F)c3)no2)ccc1-c1ccccc1C :: 86

(I) COCc1cc(-c2nc(-c3cc(Cl)c(C(=O)O)cc3OC)no2)ccc1-c1ccccc1C
(II) COCCCc1cc(-c2nc(-c3ccc(C(=O)O)c(F)c3)no2)ccc1-c1ccccc1C
Challenge: # argmax over EC50 for candidates I and II // respond with label for picked entry
Response given: II

----------
subject.of.test: S1P1 (Homo sapiens)
pKi: −log10 of the molar value. Counter-ions that a name gives are not always drawn.
measurement.type: pKi

(I) COCc1cc(-c2nc(-c3ccc(C(=O)O)c(F)c3)no2)ccc1-c1ccccc1OC [Example 79]
(II) CC1CCCCN1c1ccc(-c2nc(-c3cccc(CN(C)CC(=O)O)c3)no2)cc1NS(C)(=O)=O (stereo not shown) [Example 57, Hydrochloride salt]
(III) CCc1ccccc1-c1ccc(-c2nc(-c3cccc(CN(C)CC(=O)O)c3)no2)cc1COC [Example 143, hydrochloride salt]
(IV) CC1CCCCN1c1ccc(-c2nc(-c3ccc(C(=O)O)c(F)c3)no2)cc1NS(C)(=O)=O (stereo not shown) [Example 30]
Challenge: // ascending sort on pKi for the entries above Form field (ranking): labels in requested order.
Response given: I, IV, II, III
(I: 7.13, IV: 7.40, II: 8.22, III: 9.10)

----------
subject.of.test: S1P1 (Homo sapiens, UniProt P21453)
Sequence (P21453 whole entry, species assumed): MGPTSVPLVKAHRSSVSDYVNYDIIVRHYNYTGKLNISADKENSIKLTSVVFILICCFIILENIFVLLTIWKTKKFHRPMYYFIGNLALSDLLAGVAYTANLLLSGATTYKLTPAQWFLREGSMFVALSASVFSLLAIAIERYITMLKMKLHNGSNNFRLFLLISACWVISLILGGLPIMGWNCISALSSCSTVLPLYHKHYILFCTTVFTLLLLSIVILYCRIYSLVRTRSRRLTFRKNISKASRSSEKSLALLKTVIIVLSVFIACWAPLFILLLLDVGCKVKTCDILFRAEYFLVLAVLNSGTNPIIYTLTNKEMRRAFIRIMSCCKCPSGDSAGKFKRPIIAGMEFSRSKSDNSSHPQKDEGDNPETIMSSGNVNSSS
experiment.description: 35S-GTPγS binding, S1P1 membranes
test.parameters: membranes from CHO cells expressing S1P1; 60 min 30° C.
pEC50: −log10 of the molar value. Structures can show the parent of a compound that is named as a salt.
measurement.type: pEC50

Reference set (4 entries):
COCc1cc(-c2nc(-c3cccc(COCC(=O)OC)c3)no2)ccc1-c1ccccc1C :: 8.54
CCc1ccccc1-c1ccc(-c2nc(-c3ccc(C(=O)OC)c(F)c3)no2)cc1COC :: 6.56
COCc1cc(-c2nc(-c3ccc(C(=O)OC)c(F)c3)no2)ccc1N1CCCCC1C (centres unmarked) :: 6.31
COc1ncccc1-c1ccc(-c2nc(-c3ccc(C(=O)O)c(F)c3)no2)cc1C :: 6.08

(I) Cc1ccccc1-c1ccc(-c2nc(-c3ccc(C(=O)O)c(F)c3)no2)cc1CN1CCCC1 [Example 76, Hydrochloride salt]
(II) O=C(O)c1ccc(-c2noc(-c3ccc([N+](=O)[O-])c(N4CCCCC4)c3)n2)cc1F
(III) Cc1ccccc1-c1ccc(-c2nc(-c3ccc(OCC(=O)O)c(F)c3)no2)cc1C
(IV) O=C(O)c1ccc(-c2noc(-c3ccc(N4CCOCC4)c(C(F)(F)F)c3)n2)cc1F
Challenge: Thanks in advance: please rank these 4 entries by pEC50, highest to lowest. I would appreciate it if you listed the labels in the requested order.
Response given: III, I, IV, II

----------
subject.of.test: S1P1 (Homo sapiens, UniProt P21453)
experiment.description: 35S-GTPγS binding, S1P1 membranes
test.parameters: membranes from CHO cells expressing S1P1; 60 min 30° C.
Structures can show the parent of a compound that is named as a salt.
measurement.type: EC50 (nM)

(a) CCCN(CC(C)C)c1ccc(-c2nc(-c3ccc(C(=O)O)c(F)c3)no2)cc1NS(C)(=O)=O
(b) CCc1ccccc1-c1ccc(-c2nc(-c3ccc(F)c(CN(C)CC(=O)O)c3)no2)cc1COC [Example 147, Hydrochloride salt]
Challenge: Exercise: compare a and b ; which one has the greater EC50? // output: label of the selected item
Response given: a
(a: 10000 nM, b: 1.5 nM)

----------
subject.of.test: S1P1 (Homo sapiens)
experiment.description: 35S-GTPγS binding, S1P1 membranes
test.parameters: membranes from CHO cells expressing S1P1; 60 min 30° C.
pEC50: −log10 of the molar value. Counter-ions that a name gives are not always drawn.
measurement.type: pEC50

(A) COCc1cc(-c2nc(-c3ccc(C(=O)O)c(F)c3)no2)ccc1-c1cccc(OC)c1OC [Example 82]
(B) CCc1ccccc1-c1ccc(-c2nc(-c3cccc(CN(C)CC(=O)O)c3)no2)cc1COC [Example 143, hydrochloride salt]
Challenge: Lower pEC50: A or B ? Identify your selection by its label.
Response given: A

----------
subject.of.test: S1P1 (Homo sapiens)
experiment.description: 35S-GTPγS binding, S1P1 membranes
test.parameters: membranes from CHO cells expressing S1P1; 60 min 30° C.
measurement.type: EC50 (nM)

Cc1cc(-c2nc(-c3ccc(C(=O)O)c(F)c3)no2)ccc1N1CCCCC1 [Example 16] :: 2060

(P) COCc1cc(-c2nc(-c3ccc(C(=O)NCCCC(=O)O)c(F)c3)no2)ccc1-c1ccccc1C [Example 127]
(Q) COCc1cc(-c2nc(-c3cccc(CCO)c3)no2)ccc1-c1ccccc1C [Example 190]
Challenge: API: POST /compare with P and Q ; response names the item with higher EC50. Pick one; state its label.
Response given: P
(P: 6 nM, Q: 0.7 nM)

----------
subject.of.test: S1P1 (Homo sapiens, UniProt P21453)
experiment.description: 35S-GTPγS binding, S1P1 membranes
test.parameters: membranes from CHO cells expressing S1P1; 60 min 30° C.
pEC50: −log10 of the molar value.
measurement.type: pEC50

Cc1ccccc1-c1ccc(-c2nc(-c3ccc(NCC(=O)O)c(F)c3)no2)cc1C [Example 56] :: 7.15

(1) COCc1cc(-c2nc(-c3cccc(C(=O)NCCC(=O)OC)c3)no2)ccc1-c1ccccc1C [Example 132]
(2) COCc1cc(-c2nc(-c3cccc(C(=O)NC4(C(=O)O)CC4)c3)no2)ccc1-c1ccccc1C [Example 133]
Challenge: Just tell me: smaller pEC50 value, 1 or 2 ? Please respond with the label that marks your chosen entry.
Response given: 2

----------
subject.of.test: S1P1 (Homo sapiens)
experiment.description: 35S-GTPγS binding, S1P1 membranes
test.parameters: membranes from CHO cells expressing S1P1; 60 min 30° C.
measurement.type: EC50 (nM)

Take a look at these entries with their results.
COCc1cc(-c2nc(-c3ccc(C(=O)NC(C)CC(=O)O)c(F)c3)no2)ccc1-c1ccccc1C (centres unmarked) :: 37.3
Cc1ccccc1-c1ccc(-c2nc(-c3ccc(C(=O)O)c(F)c3)no2)cc1C(F)(F)F :: 417

(a) COCc1cc(-c2nc(-c3cccc(C(=O)O)c3)no2)ccc1-c1ccccc1C
(b) COCc1cc(-c2nc(-c3ccc(C(=O)O)c(Cl)c3)no2)ccc1-c1ccccc1C
Challenge: Please tell me which of the two, a or b , has the higher reported EC50 value. Answer with the label corresponding to your selection.
Response given: a

----------
subject.of.test: S1P1 (Homo sapiens)
experiment.description: 35S-GTPγS binding, S1P1 membranes
test.parameters: membranes from CHO cells expressing S1P1; 60 min 30° C.
measurement.type: EC50 (nM)

Worked set:
COCc1cc(-c2nc(-c3cccc(CN(C)CCC(=O)O)c3)no2)ccc1-c1ccccc1C :: 0.5
COCc1cc(-c2nc(-c3ccc(C(=O)N(C)CC(=O)OC)c(F)c3)no2)ccc1-c1ccccc1C :: 240
COCc1cc(-c2nc(-c3cccc(CNC4(C(=O)O)CC4)c3)no2)ccc1-c1ccccc1C :: 4.8

(P) CCOC(=O)C1(NC(=O)c2cccc(-c3noc(-c4ccc(-c5ccccc5C)c(COC)c4)n3)c2)CC1
(Q) COCc1cc(-c2nc(-c3ccc(C(=O)OC)c(F)c3)no2)ccc1OC(C)C
Challenge: # return whichever of P and Q has the smaller EC50 Response format: the label of the selected entry.
Response given: P
(P: 35 nM, Q: 240 nM)

(1) COCc1cc(-c2nc(-c3ccc(C(=O)NCC(=O)OC)c(F)c3)no2)ccc1-c1ccccc1C
(2) O=C(O)c1ccc(-c2noc(-c3ccc(-c4ccccc4Cl)cc3)n2)cc1F
(3) COCc1cc(-c2nc(-c3ccc(C(=O)NCC(=O)O)c(F)c3)no2)ccc1-c1ccccc1C
Challenge: Rank ascending by EC50. Please write the labels in the order that was asked for.
Response given: 1, 3, 2

----------
subject.of.test: UniProtKB P21453
experiment.description: 35S-GTPγS binding, S1P1 membranes
test.parameters: membranes from CHO cells expressing S1P1; 60 min 30° C.
Counter-ions that a name gives are not always drawn.
measurement.type: EC50 (nM)

Some solved cases for reference:
O=C(O)COc1ccc(-c2noc(-c3cnc(OCC4CC4)c(Cl)c3)n2)cc1F :: 1540
COCc1cc(-c2nc(-c3cccc(C(N)=O)c3)no2)ccc1-c1ccccc1C :: 11
COCc1cc(-c2nc(-c3cccc(CNCCC(=O)O)c3)no2)ccc1-c1ccccc1C [Example 155, Hydrochloride salt] :: 0.4
COc1cc(-c2nc(-c3ccc(C(=O)O)c(F)c3)no2)ccc1-c1cscc1C :: 148
CCc1ccccc1-c1ccc(-c2nc(-c3ccc(C(=O)O)c(F)c3)no2)cc1COC :: 15
COCC1CCCN1c1ncc(-c2nc(-c3ccc(S(N)(=O)=O)cc3)no2)cc1C (stereo not shown) :: 1090
COCc1cc(-c2nc(-c3ccc(F)c(CN(C)CCC(=O)O)c3)no2)ccc1OC(C)C [Example 157, Hydrochloride salt] :: 4
COCc1cc(-c2nc(-c3cccc(CN(CC(=O)OC(C)(C)C)C(=O)OC(C)(C)C)c3)no2)ccc1-c1ccccc1C :: 1240

(I) Cc1ccccc1-c1ccc(-c2nc(-c3ccc(C(=O)O)c(F)c3)no2)cc1CN(C)C [Example 62, Hydrochloride salt]
(II) CCOCc1cc(-c2nc(-c3ccc(C(=O)O)c(F)c3)no2)ccc1-c1ccccc1C
Challenge: Identify the entry with the smaller EC50: I or II . # answer = label of selected item
Response given: II
(II: 60 nM, I: 92 nM)

(A) COCCNC(=O)c1ccc(-c2noc(-c3ccc(-c4ccccc4C)c(COC)c3)n2)cc1F
(B) CCS(=O)(=O)Nc1cc(-c2nc(-c3ccc(C(=O)O)c(F)c3)no2)ccc1N1CCCCC1C (stereo not shown)
Challenge: Which item exceeds the other in EC50, A or B ? Which one? Tell me its label.
Response given: B

(I) COCc1cc(-c2nc(-c3ccc(OCCCC(=O)O)c(F)c3)no2)ccc1-c1ccccc1C
(II) CCc1ccccc1-c1ccc(-c2nc(-c3ccc(F)c(CN(C)CCC(=O)O)c3)no2)cc1COC [Example 156, Hydrochloride salt]
Challenge: Sorting ascending by EC50, which comes first: I or II ? Write down the label of the entry you select.
Response given: II
